Reference source for all entries: PubChem BioAssay (NCI)

Tested on: HOP-62 NSCLC
Test: NCI-60 one-dose screen, 48 h (100 = growth as untreated, 0 = no growth, -100 = all killed)
Conditions: 10 µM unless noted
About 83,000 compounds went through this panel and 20% of them were active in at least one assay; those are over-represented in the sample as a whole. Activity calls are given as the source filed them. The calls were made as follows: active = growth percent below 10; inactive = the rest.
PROPERTY_LABEL: growth

// query Recall the reported growth of COc1ccc(NS(=O)(=O)N2CCCCC2)cc1 on HOP-62 NSCLC and write it down.
// result 107% (inactive)

// query System HOP-62 NSCLC. Read-out growth. Item O=C1c2cc3c(cc2-c2c1c1ccc(Cl)cc1c(=O)n2CCCNCCO)OCO3 . Report value.
// result -81.4% (active)

// query GET growth | system: HOP-62 NSCLC | item: Cc1cc(C)c2c(N)c3cccc(C)c3nc2n1
// result -28.4% (active)

// query Write down measured growth (HOP-62 NSCLC) for this molecule. C[C@H](C(=O)N[C@@H](Cc1ccc(-c2ccccc2)cc1)C(=O)NC1CC(C)(C)N(C)C(C)(C)C1)c1ccc(-c2ccccc2)c(F)c1
// result -73.5% (active)

// query State growth on HOP-62 NSCLC. Entry: COC(=O)c1cc2c(/C=C3/NC(=S)NC3=O)coc2n1C
// result 89.3% (inactive)

---

This listing pairs compounds with measured growth.
Tested on: UACC-257 melanoma
Experiment: NCI-60 one-dose screen, 48 h (100 = growth as untreated, 0 = no growth, -100 = all killed)
Details: 10 µM unless noted
About 83,000 compounds went through this panel and 20% of them were active in at least one assay; those are over-represented in the sample as a whole.
Please respond with the number in % and leave the unit unwritten.

COMPOUND	READOUT_VALUE
O=c1[nH]c(SCc2ccccc2)nc2nc(Nc3ccc(NC(=S)Nc4ccccc4)cc3)nc(-c3ccc(O)cc3O)c12	109

// query Quickly give me recorded growth for CCOC(=O)N1CCC(N=C2CSc3nnc(-c4cc(C(F)(F)F)cc(C(F)(F)F)c4)n3N2)CC1
// result 48.6

// query Give the reported value of growth for this record: CC1CC=CCC1C1OCC(C)(C)CO1 (centres undefined)
// result 97

// query Identify the reported growth for the following entry. Nc1nc(Nc2ccccc2SSc2ccccc2Nc2nc(N)nc(C(Cl)(Cl)Cl)n2)nc(C(Cl)(Cl)Cl)n1
// result 100

// query Find the measured growth of NS(=O)(=O)c1ccc(N2CC(c3nc4ccccc4[nH]3)CC2=O)cc1 (centres undefined) and report it.
// result 109

// query Hello, please tell me recorded growth for this one: c1ccc2nc(Cn3c[n+](Cc4ccc5ccccc5n4)c4ccccc43)ccc2c1
// result -9.49

// query Identify measured growth corresponding to N#Cc1c(NC(=O)c2ccco2)[n+]([O-])c2ccccc2[n+]1[O-]
// result 102

// query Give the measured growth for C=C1CC[C@@H]2[C@](C)(COC(C)=O)[C@H](OC(C)=O)CC[C@@]2(C)[C@@H]1CC(NCc1ccccc1)C1=CCOC1=O (some centres undefined)
// result 32.8

// query Identify measured growth associated with O=C(Nc1cccc(Cl)c1)Nc1cccc(Cl)c1
// result 105

---

Test system: UO-31 renal
Assay: NCI-60 one-dose screen, 48 h
Conditions: 10 µM unless noted
About 83,000 compounds went through this panel and 20% of them were active in at least one assay; those are over-represented in the sample as a whole. Activity calls are given as the source filed them. How the source made its calls: active means growth percent below 10; inactive means the rest.
Log the outcome using a class from active, inactive

Example entries begin here.
COMPOUND	GROUP
NC(=N\N=C/Cc1ccccc1)/C(N)=N\N=C\Cc1ccccc1	inactive
CCSc1nc(Nc2ccc(S(=O)(=O)Nc3ccon3)cc2)c(C#N)c(-c2cccc(Br)c2)n1	inactive
COc1cccc(C2=NN(C(C)=O)C(c3cc(OC)c(OC)c(OC)c3)C2)c1 (stereo not drawn)	active

// query Tell me the assay call for O=C1c2cc3c(cc2-c2c1c1ccc(Cl)cc1c(=O)n2CCCNCCO)OCO3 please.
// result active

// query Which outcome did this test record for the compound Cc1ccc(OCC(=O)Nc2ccc(Oc3ccccc3)cc2)c([N+](=O)[O-])n1 ?
// result active
